Target: BMAL1 (Homo sapiens)
Sequence (O00327 338-449): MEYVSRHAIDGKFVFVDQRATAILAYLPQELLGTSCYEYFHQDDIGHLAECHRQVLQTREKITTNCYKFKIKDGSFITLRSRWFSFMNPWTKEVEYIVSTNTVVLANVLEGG
Design: PASB domain (residues 338–449); Protein thermal shift (PTS) fragment screen on recombinant human BMAL1(PASB), shift of melting temperature
Details: dTmB; binder
So basically: Bmal1(PASB) dTmB at -0.04 °C or higher? That is Criterion met. Lower than -0.04 °C? That is Criterion not met.

# compound, system, group-label
records = [
    ("O=C(O)c1ccccc1Nc1cccc(Cl)c1", "BMAL1 (Homo sapiens)", "Criterion not met"),
    ("COc1ccc(CN2CCNCC2)cc1", "BMAL1 (Homo sapiens)", "Criterion not met"),
    ("Cc1noc(N)c1C", "BMAL1 (Homo sapiens)", "Criterion not met"),
    ("CCC1=C(C)CN(C(=O)NCCc2ccccc2)C1=O", "BMAL1 (Homo sapiens)", "Criterion not met"),
    ("CC(C(=O)O)c1cccc(F)c1 (stereo not shown)", "BMAL1 (Homo sapiens)", "Criterion met"),
    ("O=C(c1ccccc1)c1ccc(Br)cc1", "BMAL1 (Homo sapiens)", "Criterion not met"),
    ("S=c1[nH]c2ccccc2[nH]1", "BMAL1 (Homo sapiens)", "Criterion met"),
    ("O=C(O)CCc1ncc(-c2ccccc2)o1", "BMAL1 (Homo sapiens)", "Criterion met"),
    ("OCC1CCCNC1 (stereo not shown)", "BMAL1 (Homo sapiens)", "Criterion not met"),
    ("CC(=O)c1ccc(N2CCNCC2)c(F)c1", "BMAL1 (Homo sapiens)", "Criterion not met"),
    ("Cc1cc(C(C)(C)CC(C)(C)C)ccc1O", "BMAL1 (Homo sapiens)", "Criterion met"),
    ("CCCCc1nc(Cl)c(CO)[nH]1", "BMAL1 (Homo sapiens)", "Criterion met"),
    ("Nc1ncc([N+](=O)[O-])s1", "BMAL1 (Homo sapiens)", "Criterion not met"),
    ("CC(O)(c1ccccc1)c1ccccc1", "BMAL1 (Homo sapiens)", "Criterion not met"),
    ("O=[N+]([O-])c1ccc(CO)cc1", "BMAL1 (Homo sapiens)", "Criterion not met"),
    ("Nc1ccc([N+](=O)[O-])cc1Cl", "BMAL1 (Homo sapiens)", "Criterion met"),
    ("Nc1ccc(Cl)nn1", "BMAL1 (Homo sapiens)", "Criterion not met"),
    ("COc1ccc(CC(C)N)cc1 (stereo not shown)", "BMAL1 (Homo sapiens)", "Criterion not met"),
]

###

Target: UniProt O00327
Design: PASB domain (residues 338–449); Protein thermal shift (PTS) fragment screen on recombinant human BMAL1(PASB), shift of melting temperature
Conditions: dTmB; binder
We label by threshold. Values of Bmal1(PASB) dTmB strictly beneath -0.2 °C are MET. Values of -0.2 °C and up are NOT MET.

# molecule, group-label
measured = [
    ("OC(c1ccccc1)c1ccccn1 (centres unmarked)", "MET"),
    ("O=C(NCc1cccnc1)c1ccc(O)cc1", "MET"),
    ("O=c1[nH]nc(Cc2ccc(Cl)cc2)c2ccccc12", "MET"),
    ("CC(=O)N(CCC(=O)O)c1ccccc1", "NOT MET"),
    ("COc1cc(N)ncn1", "NOT MET"),
    ("O=C(Nc1ccccc1Cl)c1ccccc1O", "NOT MET"),
    ("Cn1ccccc1=O", "NOT MET"),
    ("CS(=O)(=O)c1ccc(CO)cc1", "MET"),
    ("O=C(O)CCc1ccc(Cl)cc1", "NOT MET"),
    ("c1ccc(C2CCNCC2)cc1", "MET"),
    ("CNS(=O)(=O)Cc1ccc2[nH]cc(CCN)c2c1", "NOT MET"),
    ("COc1cccc2c1CCCC2=O", "MET"),
    ("NC(=O)c1ccncc1", "NOT MET"),
    ("CC(C)NCC(O)c1ccccc1 (centres unmarked)", "MET"),
    ("NCCc1ccc(F)cc1F", "MET"),
    ("CCCC(=O)c1ccc(F)cc1", "NOT MET"),
    ("Cc1cccc(C)c1NC(=O)CN1CCNCC1", "MET"),
    ("NCCCCc1ccccc1", "MET"),
    ("Cc1nc(-c2ccccc2)c(-c2ccccc2)o1", "MET"),
]
